system: Neuregulin-1 EGF-like domain; assay: small molecules binding NRG1 EGF domain – biochemical, small-molecule microarray, 635 nm fluorescence, primary screen (AID 1081); settings: higher = more signal;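 further: binding of the protein to compounds printed on small-molecule microarray slides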
ENDPOINT NAME: composite z-score

* COc1ccc(CCNC(=O)[C@@]2(Sc3ccc(C)cc3)CC(=O)N(Cc3ccccc3C(F)(F)F)[C@@H]2c2ccc(CO)cc2I)cc1 | 1.01
* CC(C)NC(=O)[C@@]1(c2ccc([N+](=O)[O-])cc2)CC(=O)N(C2CCCCC2)[C@@H]1c1ccc(CO)cc1 | 1.35
* NC(=O)NCC#Cc1ccc2c(c1)[C@]1(C(=O)N2)[C@H](c2ccccc2OCCO)N2[C@H](c3ccccc3)[C@H](c3ccccc3)OC(=O)[C@H]2[C@@H]1C(=O)NC[C@H](O)c1ccccc1 | -0.32
* C=CCNC(=O)[C@@H]1[C@H]2C(=O)O[C@H](c3ccccc3)[C@H](c3ccccc3)N2[C@H](c2ccccc2OCCO)[C@@]12C(=O)Nc1ccc(C#CCC(C(=O)OC)C(=O)OC)cc12 | 1.28
* COC(=O)[C@@]1(Cc2ccc(F)cc2)[C@H]2c3cc(C(=O)N(C)C)n(Cc4ccc(OC(F)(F)F)cc4)c3C[C@H]2CN1C(=O)c1ccccc1 | 0.429
* O=C(NCCN1CCOCC1)[C@@H]1c2ccccc2C(=O)N(Cc2ccccc2Cl)[C@H]1c1ccc(CO)cc1 | 1.32
* COc1ccc([Si](C)(C)[C@H]2[C@H](CC(=O)N(CCO)Cc3ccccc3)O[C@@]3(C(=O)N(C)c4c(Br)cc(C)cc43)[C@@H]2C)cc1 | 1.22
* [N-]=[N+]=Nc1ccccc1C[C@@]1(C(=O)NCCN2CCOCC2)N=C(c2ccc(OCCCO)cc2)O[C@@H]1c1ccccc1N=[N+]=[N-] | 1.29
* Cc1ccc(S[C@]2(C(=O)NC(C)C)CC(=O)N(Cc3cc(C(F)(F)F)cc(C(F)(F)F)c3)[C@@H]2c2ccc(CO)cc2)cc1 | 0.644
* Cc1ccc(N2C(=O)c3ccccc3[C@@H](C(=O)NCCCN(C)C)[C@@H]2c2ccc(CO)cc2)nc1 | 1.44
* CC(C)N1CC=CC23O[C@@H]4C=CCCOC(=O)C4[C@H]2C(=O)N(CCCO)[C@@H]3C1=O (some centres undefined) | 0.059
* CC(c1ccccc1)C(O)C1C=CC2C(=O)N(C)C(=O)C2N1Nc1ccccc1 (centres undefined) | 1.25
* CCOC(=O)C1=C[C@@H](C(C)(C)C)N(S(=O)(=O)c2ccc(C)cc2)[C@H]1c1cccc2ccccc12 | 0.876
* CN1C(=O)C2C=CC(C(O)c3cccn3C)N(Nc3ccc([N+](=O)[O-])cc3[N+](=O)[O-])C2C1=O (centres undefined) | 0.828

----------
system: Noggin (protein binding on small-molecule microarray); assay: small molecules binding Noggin protein – biochemical, 635/667 nm fluorescence, primary screen (AID 1095); conditions: 635 nm fluorescence, higher = more signal;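 further: score merges 667 nm feature fluorescence with signal to noise over triplicate slides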
Assign class by composite z-score: not lower than 0.6 means MET; lower than 0.6 means NOT MET.

• CC(=O)NCCCC[C@@H]1NC(=O)[C@@H]2C[C@H](C(=O)NCCCCCN)[C@H](c3cccc(OCCO)c3)N2C1=O = MET
• CCCCC=C[C@@H](NC(=O)OCc1ccccc1Cl)c1ccccc1 = MET
• O=C(O)[C@@H]1[C@@H]2C(=O)N(c3ccccc3)C(=O)[C@@H]2C[C@@H]1Sc1ccccc1 = NOT MET
• Cc1ccc(C(C)CC(O)C2C=CC3C(=O)N(c4ccccc4)C(=O)C3N2Nc2ccccc2)o1 (stereo not given) = NOT MET

----------
Catalogue of compounds with associated z-score
assay: Pseudomonas biofilm growth suppression – PAO1 strain, BacTiter-Glo luminescence, LB-PBS, primary screen (AID 1144); settings: P. aeruginosa PAO1 biofilm, 12 h, higher = more signal
ENDPOINT NAME: z-score

* COc1ccc([Si](C)(C)[C@@H]2[C@@H](CC(=O)N3CCC[C@H]3CO)O[C@]3(C(=O)N(Cc4cccc(N5C(=O)COc6ccccc65)c4)c4ccccc43)[C@H]2C)cc1 | 0.425
* CN(C)CCCCCCNC(=O)[C@@H]1C[C@@H]2C(=O)N3CCC[C@H]3C(=O)N2[C@@H]1c1cccc(OCCO)c1 | 0.15
* CCOC(=O)C1=C[C@@H](C(C)C)N(S(=O)(=O)c2ccc(C)cc2)[C@H]1c1ccc(C(F)(F)F)cc1 | 0.803
* CCOC(=O)C[C@H]1[C@H](OC(=O)c2cc3ccccc3oc2=O)[C@@H](NC(=O)CC(C)C)c2cc(OCCCO)ccc2N1C(=O)c1ccc2ccccc2n1 | 0.152
* C#Cc1cc2ccccc2oc1=O | 0.534
* O=C1O[C@H](c2ccccc2)[C@H](c2ccccc2)N2[C@H]1[C@@H](C(=O)O)[C@]1(C(=O)Nc3ccc(C#CCCO)cc31)[C@H]2c1ccccc1OCCO | -0.352
* COC(=O)[C@@]1(Cc2ccc(OC)cc2)[C@H]2c3cc(C(=O)N4CCCC4)n(CCc4c[nH]c5ccc(O)cc45)c3C[C@H]2CN1C(=O)c1ccccc1 | 0.34

----------
molecular target: Epidermal growth factor receptor (Homo sapiens); assay: compounds binding epidermal growth factor receptor – biochemical, small-molecule microarray, 635 nm fluorescence, primary screen (AID 1104); conditions: EGFR binding, higher = more signal;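 further: score merges 667 nm emission intensity with spot signal to noise over triplicate slides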
ENDPOINT NAME: composite z-score

• C=C(C(=O)CC[C@H](OC(=O)c1ccccc1-c1ccccc1C(=O)O)c1cccc(OCCO)c1)C(C)C = -0.803
• CC(C)c1ccc(NN2C(C(O)c3ccc(C#N)cc3)C=CC3C(=O)N(c4ccccc4)C(=O)C32)cc1 (configuration not stated) = 0.397
• C=CC[C@@H](OC(=O)Nc1ccc(SC)cc1)c1ccc(O)c(F)c1 = -0.361
• CCOC(=O)C[C@H]1[C@H](OC(=O)Cc2ccc3c(c2)OCO3)[C@@H](NC(=O)c2ccc3ccccc3n2)c2cc(OCCCO)ccc2N1C(=O)c1ccccc1 = 0.0654
• CC(=O)NCCCC[C@@H]1NC(=O)[C@@H]2C[C@H](C(=O)NCCCCCN)[C@H](c3cccc(OCCO)c3)N2C1=O = 0.504
• [N-]=[N+]=Nc1ccccc1C[C@@]1(C(=O)N2CCOCC2)N=C(c2ccc(OCCCO)cc2)O[C@@H]1c1ccccc1 = 0.577
• O=c1cccc(-c2ccc([N+](=O)[O-])cc2)o1 = 0.574

----------
assay: viability profiling in RPMI8226 myeloma cells – cell-based, resazurin fluorescence, basal, 24 h, PK04 Diversity Set, profiling panel (AID 1180); settings: higher = more signal;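 further: RPMI8826 multiple myeloma cell line at 5000 cells per well; test concentration not given here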
ENDPOINT NAME: z-score

- COc1ccc(C#Cc2ccc3c(c2)[C@]2(C(=O)N3)[C@H](c3ccc(OCCO)cc3)N3[C@H](c4ccccc4)[C@H](c4ccccc4)OC(=O)[C@H]3[C@@H]2C(=O)NC[C@H](O)c2ccccc2)cc1: -1.08
- COC(=O)C1(CC(C)C)C=C2C(=C(c3ccccc3)C(=O)C2C)CN1 (stereo unspecified): -1.27
- CCCCNC(=O)c1ccc(C#CC(C)(C)C)c(OC(C)=O)c1: 0.116
- CCCCN1CC=CC23O[C@@H]4/C=C\CCC(C)OC(=O)C4[C@H]2C(=O)N(CCCO)[C@@H]3C1=O (stereo partly specified): 0.79
- C=C(COC)/C(=C/C[C@H](OC(=O)c1ccncc1)c1ccccc1OCCO)c1cc(C(=O)OC)ccc1OC: -1.58
- CCCC[C@@H](O)C1=C(COc2ccccc2)C[C@H]2C(=O)N(Cc3ccccc3)C(=O)[C@H]2[C@H]1CO: -0.301

----------
Catalogue of molecules with associated z-score
assay: inhibition of PAO1 biofilm formation – strain PAO1, LB-PBS medium, absorbance 600 nm, primary screen (AID 1176); further: test concentration not given here; conditions: P. aeruginosa PAO1 growth/biofilm, A600, 12 h; higher = more signal
ENDPOINT NAME: z-score

- [N-]=[N+]=Nc1ccccc1C[C@@]1(C(N)=O)N=C(c2ccc(OCCCO)cc2)O[C@@H]1c1ccccc1N=[N+]=[N-]: 0.0405
- COc1ccc([Si](C)(C)[C@@H]2[C@@H](CC(=O)N3CCC[C@H]3CO)O[C@]3(C(=O)N(Cc4cccc(N5C(=O)COc6ccccc65)c4)c4ccccc43)[C@H]2C)cc1: 0.425
- C=CCOC(=O)[C@@H]1[C@H]2C(=O)O[C@H](c3ccccc3)[C@H](c3ccccc3)N2[C@H](c2ccc(OCCOC(=O)[C@@H]3C[C@@H]4C(=O)N[C@@H](CCCC[N+](C)(C)C)C(=O)N4[C@@H]3c3ccc(O)cc3)cc2)[C@@]12C(=O)Nc1ccc(I)cc12: 0.379
- CCCN1C(=O)[C@]2(Cc3ccccc31)N=C(c1ccc(OCCCO)cc1)O[C@@H]2c1ccccc1: 0.0279

----------
assay: optical density change of DRC41 E. coli – strain DRC41, OD650, 24 h, E. coli filamentation project, primary screen (AID 1093);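 further: MC1000 strain lacking acrAB efflux and sulA so SOS filamentation is blocked; test concentration not given here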; conditions: E. coli DRC41 growth, higher = more signal, called active from +8 up or from −8 down
Assign class by z-score: not lower than 0.3 means Yes; lower than 0.3 means No.

• C=C(COC)/C(=C/C[C@H](OC(=O)c1ccncc1)c1ccc(CO)o1)c1cnc2ccccc2c1 = No
• COc1cccc(C)c1NC(=O)O[C@H]1[C@H](OC(=O)Nc2ccccc2-c2ccccc2)[C@H](OC(=O)Nc2ccccc2-c2ccccc2)[C@@H](OC)O[C@@H]1CO = No
• CCCCCC1=C2CNC(C)(C(=O)OC)C=C2C(C)C1=O (stereo unspecified) = No
• CCCC[C@@H](O)C1=C(COc2ccccc2)C[C@H]2C(=O)N(Cc3ccccc3)C(=O)[C@H]2[C@H]1CO = Yes
• COc1ccc([Si](C)(C)[C@@H]2[C@@H](CCO)O[C@]3(C(=O)N(Cc4ccccc4)c4ccc(NC(=O)[C@H](C)O)cc43)[C@H]2C)cc1 = Yes
